Test system: 422866-222-R5-J1-PDC complex spheroids viability
Experiment: Anticancer human tumor 422866-222-R5-J1-PDC patient-derived pancreatic adenocarcinoma cell line growth inhibition [RAS]
Details: second compound 0.3 µM; first compound 1 µM; stronger effect = lower value
Rule: viability, T/C below 20% gives MET, anything at or above gives NOT MET.

COMPOUND	ASSIGNED_CLASS
CC(C)NCC(C(=O)N1CCN(c2ncnc3c2C(C)CC3O)CC1)c1ccc(Cl)cc1 (stereo unspecified) + CCn1c(-c2cccnc2C(C)OC)c2c3cc(ccc31)N1CCOC(CC(NC(=O)C(C(C)C)N(C)C(=O)C3(F)CCN(C(=O)C#CC(C)(C)N(C)C)CC3)C(=O)N3CCCC(N3)C(=O)OCC(C)(C)C2)C1	MET
C[C@@H](NC(=O)c1ncnc(N)c1Cl)c1ncc(C(=O)Nc2cc(C(F)(F)F)c(Cl)cn2)s1 + CCn1c(-c2cc(N3CCN(C)CC3)cnc2C(C)OC)c2c3cc(ccc31)-c1csc(n1)CC(NC(=O)C1CC1C)C(=O)N1CCCC(N1)C(=O)OCC(C)(C)C2	NOT MET
CC(Nc1ccc2c(c1)OCCn1cc(N3C(=O)OCC3C(F)F)nc1-2)C(N)=O (stereo unspecified) + CCn1c(-c2cccnc2C(C)OC)c2c3cc(ccc31)N1CCOC(CC(NC(=O)C(C(C)C)N(C)C(=O)C3(F)CCN(C(=O)C#CC(C)(C)N(C)C)CC3)C(=O)N3CCCC(N3)C(=O)OCC(C)(C)C2)C1	MET
CC(=O)OC12COC1CC(O)C1(C)C(=O)C(O)C3=C(C)C(OC(=O)C(O)C(NC(=O)OC(C)(C)C)c4ccccc4)CC(O)(C(OC(=O)c4ccccc4)C21)C3(C)C (stereo unspecified) + CCn1c(-c2cccnc2C(C)OC)c2c3cc(ccc31)N1CCOC(CC(NC(=O)C(C(C)C)N(C)C(=O)C3(F)CCN(C(=O)C#CC(C)(C)N(C)C)CC3)C(=O)N3CCCC(N3)C(=O)OCC(C)(C)C2)C1	MET
CCC(CC)c1cc(NC2CCC(N)C2)n2nccc2n1 (stereo unspecified) + CCn1c(-c2cc(N3CCN(C)CC3)cnc2C(C)OC)c2c3cc(ccc31)-c1csc(n1)CC(NC(=O)C1CC1C)C(=O)N1CCCC(N1)C(=O)OCC(C)(C)C2	NOT MET

* * *

Test system: 422866-222-R5-J1-PDC complex spheroids viability
Assay: Anticancer human tumor 422866-222-R5-J1-PDC cell line growth inhibition [RAS]; active = viability on the fitted dose curve at most 10% of control; inactive = the rest;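 note: spheroids exposed to compounds for 7 days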
Settings: second compound 0.0949 µM; first compound 0.3 µM
Outcome codes: y = active, n = inactive

MOLECULE	ASSIGNED_CLASS
CC1(C)CCC(Nc2ncc(C(F)(F)F)c(-c3c[nH]c4c(P(C)(C)=O)c(C#N)ccc34)n2)CN1 (centres undefined) + CCn1c(-c2cc(N3CCN(C)CC3)cnc2C(C)OC)c2c3cc(ccc31)-c1csc(n1)CC(NC(=O)C1CC1C)C(=O)N1CCCC(N1)C(=O)OCC(C)(C)C2	n
CCc1c2c(nc3ccc(O)cc13)-c1cc3c(c(=O)n1C2)COC(=O)[C@]3(O)CC + CCn1c(-c2cc(N3CCN(C)CC3)cnc2C(C)OC)c2c3cc(ccc31)-c1csc(n1)CC(NC(=O)C1CC1C)C(=O)N1CCCC(N1)C(=O)OCC(C)(C)C2	y
CC1(C)CCC(Nc2ncc(C(F)(F)F)c(-c3c[nH]c4c(P(C)(C)=O)c(C#N)ccc34)n2)CN1 (centres undefined) + CCn1c(-c2cccnc2C(C)OC)c2c3cc(ccc31)N1CCOC(CC(NC(=O)C(C(C)C)N(C)C(=O)C3(F)CCN(C(=O)C#CC(C)(C)N(C)C)CC3)C(=O)N3CCCC(N3)C(=O)OCC(C)(C)C2)C1	n
CCc1c2c(nc3ccc(O)cc13)-c1cc3c(c(=O)n1C2)COC(=O)[C@]3(O)CC + CCn1c(-c2cccnc2C(C)OC)c2c3cc(ccc31)N1CCOC(CC(NC(=O)C(C(C)C)N(C)C(=O)C3(F)CCN(C(=O)C#CC(C)(C)N(C)C)CC3)C(=O)N3CCCC(N3)C(=O)OCC(C)(C)C2)C1	n
